System: β-catenin/TCF complex
Assay: cells
Type: cell-based
Conditions: IEC18-S33Y cells, 17-20 h with compound, β-catenin-dependent firefly luciferase with Renilla control; read-out: IC50
MEASUREMENT_LABEL: IC50

substance_smiles=COc1ccc(-c2nc3c(=O)n(C)c(=O)nc-3n(CCO)n2)cc1 obs_value="6.07 µM"

====

melting point by entry:
MEASUREMENT_LABEL: melting point

compound=Cn1c(=O)c2nc(-c3ccc(Cl)cc3)nnc2n(Cc2ccccc2F)c1=O obs_value="251 to 254 °C"
compound=Cn1nc(-c2cccc([N+](=O)[O-])c2)nc2c(=O)n(C)c(=O)nc1-2 obs_value="223 to 224 °C"
compound=Cn1c(=O)nc2[nH]nc(-c3ccccc3F)nc-2c1=O obs_value="248 to 250 °C"
compound=Cn1c(=O)nc2n(CCO)nc(-c3ccc(Cl)c(Cl)c3)nc-2c1=O obs_value="208 to 211 °C (dec.)"
compound=CN(C)c1ccc(-c2nc3c(=O)n(C)c(=O)nc-3n(CCO)n2)cc1 obs_value="170 to 180 °C (dec.)"
compound="Cn1nc(-c2ccccc2F)nc2c(=O)[nH]c(=O)nc1-2 [Compound 17a]" obs_value="240 to 247 °C (dec.)"
compound=Cn1nc(-c2ccc([N+](=O)[O-])cc2)nc2c(=O)n(C)c(=O)nc1-2 obs_value="220 to 223 °C"
compound=Cn1c(=O)c2nc(-c3ccccc3)nnc2n(Cc2ccc(C(F)(F)F)cc2)c1=O obs_value="225 to 227 °C (dec.)"
compound=COc1ccc(-c2nnc3c(n2)c(=O)n(C)c(=O)n3Cc2ccc(F)cc2)cc1 obs_value="230 to 234 °C (dec.)"
compound=CCCn1c(=O)n(C)c(=O)c2nc(-c3ccc(Cl)cc3)nnc21 obs_value="202 to 205 °C"
compound=Cn1c(=O)c2nc(-c3ccccc3)nnc2n(Cc2ccc(F)cc2)c1=O obs_value="253 to 254 °C"
compound=Cc1ccc(Cn2c(=O)n(C)c(=O)c3nc(-c4ccccc4F)nnc32)cc1 obs_value="320 °C (dec.)"
compound=Cn1c(=O)c2nc(-c3ccccc3)nnc2n(Cc2ccc([N+](=O)[O-])cc2)c1=O obs_value="274 to 280 °C (dec.)"
compound=COc1ccc(-c2nc3c(=O)n(C)c(=O)nc-3n(CCO)n2)cc1OC obs_value="215 to 218 °C (dec.)"

====

Test system: IEC18 Rat Epithelial Cells (IEC18-S33Y)
Conditions: 17-20 h with compound, WST-1
MEASUREMENT_LABEL: log10(LD50) (log10 of the value in µM)

compound=CCc1nc2c(=O)n(C)c(=O)nc-2n(C)n1 measurement_label=log10(LD50) obs_value=0.47
compound=Cn1nc(-c2ccccc2)[n+]([O-])c2c(=O)n(C)c(=O)nc1-2 measurement_label=log10(LD50) obs_value=0.23
compound=Cn1nc(-c2ccc(Cl)cc2)[n+]([O-])c2c(=O)n(C)c(=O)nc1-2 measurement_label=log10(LD50) obs_value=0.30
compound="CCN(CC)CCOc1ccc(-c2nnc3c(n2)c(=O)n(C)c(=O)n3Cc2cccc(F)c2)cc1 [Compound 10c]" measurement_label=log10(LD50) obs_value=1.33
compound="CCN(CC)CCOc1ccc(-c2nnc3c(n2)c(=O)n(C)c(=O)n3Cc2ccc(F)c(F)c2)cc1 [Compound 10g]" measurement_label=log10(LD50) obs_value=0.41
compound=Cn1nc(-c2ccc(Cl)cc2)nc2c(=O)n(C)c(=O)nc1-2 measurement_label=log10(LD50) obs_value=0.45
compound=Cn1nc(-c2ccc(Cl)c(Cl)c2)nc2c(=O)n(C)c(=O)nc1-2 measurement_label=log10(LD50) obs_value=1.48
compound=Cn1nc(-c2ccccc2F)nc2c(=O)n(C)c(=O)nc1-2 measurement_label=log10(LD50) obs_value=-0.15
compound=Cc1ccc(-c2nc3c(=O)n(C)c(=O)nc-3n(C)n2)cc1 measurement_label=log10(LD50) obs_value=-0.08
compound=Cn1c(=O)nc2n(CCO)nc(-c3ccccc3)nc-2c1=O measurement_label=log10(LD50) obs_value=0.32
compound=Cn1c(=O)nc2n(CCO)nc(-c3ccc(OCCN4CCCC4)cc3)nc-2c1=O measurement_label=log10(LD50) obs_value=0.19
compound=Cc1nc2c(=O)n(C)c(=O)nc-2n(C)n1 measurement_label=log10(LD50) obs_value=0.31
compound="Cn1nc(-c2ccccc2F)nc2c(=O)n(Cc3ccc(F)c(F)c3)c(=O)nc1-2 [Compound 17e]" measurement_label=log10(LD50) obs_value=-0.32
compound=CCN(CC)CCOc1ccc(-c2nc3c(=O)n(C)c(=O)nc-3n(C)n2)cc1 measurement_label=log10(LD50) obs_value=-0.87
compound=Cc1ccc(-c2nc3c(=O)n(C)c(=O)nc-3n(CCO)n2)cc1 measurement_label=log10(LD50) obs_value=0.41
compound=Cn1nc(-c2cccc(Cl)c2)nc2c(=O)n(C)c(=O)nc1-2 measurement_label=log10(LD50) obs_value=1.38
compound=Cn1nc(-c2ccccc2)nc2c(=O)n(C)c(=O)nc1-2 measurement_label=log10(LD50) obs_value=0.14
compound=COc1ccc(-c2nc3c(=O)n(C)c(=O)nc-3n(CCO)n2)cc1 measurement_label=log10(LD50) obs_value=0.92
compound=Cn1nc(-c2ccc(F)cc2)nc2c(=O)n(C)c(=O)nc1-2 measurement_label=log10(LD50) obs_value=0.04
compound=Cn1c(=O)nc2n(CCO)nc(-c3ccc(Cl)cc3)nc-2c1=O measurement_label=log10(LD50) obs_value=0.80
compound=Cn1c(=O)nc2n(CCO)nc(-c3ccccn3)nc-2c1=O measurement_label=log10(LD50) obs_value=0.98
